Each entry below lists one item and its recorded pKd value.
# TARGET_OR_SYSTEM: the molecule itself
# EXPERIMENT_DESCRIPTION: other fluorescence titration; emission maximum against HdeB concentration (1-100 μM, as monomers) at pH 7.5; dimer to monomers
pKd: −log10 of the molar value.
MEASUREMENT_KIND: pKd

protein="HdeB-His6 WT (natural protein, E. coli, UniProt P0AET2 30-108, looked up, HdeB, E. coli periplasmic acid-stress chaperone; begins at A30; A30 to A102 ordered in the crystal plus six disordered C-terminal residues; residue numbers count on the precursor; Cloned with hdeA (hdeAB genes) in pTrc99A; primers are in the Supplementary Data; also called HdeB WT; wild type; source: E. coli MG1655ΔhdeAB, plasmid pTrcHdeABHis6, 1 mM IPTG, purified (Ni resin, gel filtration); not …) ANESAKDMTCQEFIDLNPKAMTPVAWWMLHEETVYKGGDTVTLNETDLTQIPKVIEYCKKNPQKNLYTFKNQASNDLPN" measurement_kind=pKd value_qualifier=> measured_value=6.00
protein="HdeB E41Q (natural protein, E. coli, UniProt P0AET2 30-108, looked up, HdeB, E. coli, with E41Q; residue numbers count on the precursor; The methods speak of 'purified HdeB-His6 WT and E41Q samples'; probably the same construct and host as the wild type; also called E41Q mutant; source: purified mutant protein) ANESAKDMTCQQFIDLNPKAMTPVAWWMLHEETVYKGGDTVTLNETDLTQIPKVIEYCKKNPQKNLYTFKNQASNDLPN" measurement_kind=pKd value_qualifier== measured_value=4.47
